test details: BSK_3C_Vis: BioMAP Diversity Plus: 3C Assay for Morphology Visualization (AID 2283025);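 note: fitted both ways so gain or loss versus DMSO counts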
stated conditions: primary human endothelial cells (HUVEC)
Calls of active or inactive are those of the source. Rule for the calls: active = hit-call score of the fitted dose curve at least 0.9, where 1 is the maximum; inactive = score below 0.9.
Pick one: t (active), f (inactive)

Completed entries (count: 5):
molecule | qualitative label
C[C@]12C=CC3=C4CCC(=O)C=C4CC[C@H]3[C@@H]1CC[C@@H]2O | t
CCC(C)c1ccc(O)cc1 (stereo not given) | f
CCCCCOC(=O)c1ccccc1C(=O)OCCCCC | t
Cc1ccc(N)c(N)c1 | f
CO[C@@H]1[C@H](OC(=O)NC(=O)CCl)CC[C@]2(CO2)[C@H]1[C@@]1(C)O[C@@H]1CC=C(C)C | f

Could you kindly confirm the outcome this assay logged for "Cc1ccc(N)cc1" ?
f

What was the test verdict on "CCCCCCCCOC(=O)c1ccc(C(=O)OCCCCCCCC)c(C(=O)OCCCCCCCC)c1" ?
f

For "CCCCCCCCn1sccc1=O" , which call appears in the assay record?
t

Recorded test outcome, item "Nc1ccc(Cl)cc1N"
f

Please share the test call associated with CC(O)CCO (stereo not given) .
f

Please share the test call associated with "CCC[CH2][Sn]([Cl])([CH2]CCC)[CH2]CCC" .
t

I would be grateful if you could indicate the recorded call for "[As]#[In]" .
f

Status in this test for "Cc1cc(N=Nc2ccccc2C)ccc1N" ?
t

Record request — test call for "O=P(OCCCl)(OCCCl)OCCCl"
f

Dear all, I need the recorded test outcome for "Nc1ccc(Oc2ccc(N)cc2)cc1" , thank you.
f

Look up the recorded call for "CCC12COCN1COC2" in this test.
f

Short answer needed: outcome of this test for "[Cl-].[Cl-].[Hg+2]" ?
t
